Entry source: ChEMBL document CHEMBL1127619

Below: a set of entries, each annotated with reported Ke.
EXPERIMENTAL SYSTEM: UniProtKB P41144
SETUP CONDITIONS: 100 nM
Lab book: enter the figure in nM, no units written.

>>> df
                                 cpd_smiles  measurement_type  readout_value
0  O=C1/C(=C/c2ccccc2)C[C@@]2(O)[C@H]3Cc4ccc(O)c5c4[C@@]2(CCN3CC2CC2)[C@H]1O5                Ke            100
1  Oc1ccc2c3c1O[C@H]1[C@@H](Nc4ccccc4)CC[C@@]4(O)[C@@H](C2)N(CC2CC2)CC[C@]314                Ke            100
2  O=C1/C(=C\c2ccccc2)C[C@@]2(O)[C@H]3Cc4ccc(O)c5c4[C@@]2(CCN3CC2CC2)[C@H]1O5                Ke             53

Next compound, please.
Request body: readout Ke, system UniProtKB P41144, query Oc1ccc2c3c1O[C@H]1[C@H](Nc4ccccc4)CC[C@@]4(O)[C@@H](C2)N(CC2CC2)CC[C@]314 . Return the value.
6

###

The following compounds have recorded Ki on Kappa-type opioid receptor (Cavia porcellus).
Sequence (P41144 whole entry): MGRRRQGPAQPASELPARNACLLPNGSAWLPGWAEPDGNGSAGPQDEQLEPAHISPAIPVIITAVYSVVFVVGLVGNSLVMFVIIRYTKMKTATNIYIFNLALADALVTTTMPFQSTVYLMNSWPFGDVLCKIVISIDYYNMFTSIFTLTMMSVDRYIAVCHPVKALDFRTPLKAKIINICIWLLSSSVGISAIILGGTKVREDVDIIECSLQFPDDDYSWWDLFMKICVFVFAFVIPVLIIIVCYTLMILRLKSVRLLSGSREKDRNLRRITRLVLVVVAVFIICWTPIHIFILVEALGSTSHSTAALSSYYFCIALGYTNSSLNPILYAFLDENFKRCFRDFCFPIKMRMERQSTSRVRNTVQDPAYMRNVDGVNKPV
Lab book: enter the figure in nM, no units written.

Answered examples (3):
                                   compound  measurement_type  measurement_units  readout_value
0  O=C1[C@@H]2Oc3c(O)ccc4c3[C@@]23CCN(CC2CC2)[C@H](C4)[C@]3(O)CC12Cc1ccccc1C2                Ki                 nM           12.5
1  O=C1/C(=C/c2ccccc2)C[C@@]2(O)[C@H]3Cc4ccc(O)c5c4[C@@]2(CCN3CC2CC2)[C@H]1O5 [BNTX]                Ki                 nM            5.9
2  Oc1ccc2c3c1O[C@H]1C4(CC[C@@]5(O)[C@@H](C2)N(CC2CC2)CC[C@]315)Oc1ccccc1O4                Ki                 nM             25

Next compound, please.
Item Oc1ccc2c3c1O[C@H]1[C@H](Nc4ccccc4)CC[C@@]4(O)[C@@H](C2)N(CC2CC2)CC[C@]314 has what recorded Ki?
2.2

###

Below: a set of entries, each annotated with reported Ke.
EXPERIMENTAL SYSTEM: Delta-type opioid receptor (Mus musculus) (UniProt P32300)
Sequence (P32300 whole entry): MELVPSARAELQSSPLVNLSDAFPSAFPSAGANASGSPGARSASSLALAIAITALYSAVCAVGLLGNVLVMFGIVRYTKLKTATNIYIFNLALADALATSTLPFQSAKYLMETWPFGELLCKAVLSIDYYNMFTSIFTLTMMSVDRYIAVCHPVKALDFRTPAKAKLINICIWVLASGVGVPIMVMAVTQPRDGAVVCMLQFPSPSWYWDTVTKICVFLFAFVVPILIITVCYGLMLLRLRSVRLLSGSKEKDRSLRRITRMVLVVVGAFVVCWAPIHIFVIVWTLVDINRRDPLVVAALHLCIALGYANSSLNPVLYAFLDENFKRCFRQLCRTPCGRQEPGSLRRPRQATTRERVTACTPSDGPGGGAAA
SETUP CONDITIONS: 100 nM
Lab book: enter the figure in nM, no units written.

Answered examples (5):
                                 cpd_smiles                       experimental_system  readout_value
0  O=C1/C(=C/c2ccccc2)C[C@@]2(O)[C@H]3Cc4ccc(O)c5c4[C@@]2(CCN3CC2CC2)[C@H]1O5  Delta-type opioid receptor (Mus musculus) (UniProt P32300)            2.9
1  Oc1ccc2c3c1O[C@H]1[C@H](Nc4ccccc4)CC[C@@]4(O)[C@@H](C2)N(CC2CC2)CC[C@]314  Delta-type opioid receptor (Mus musculus) (UniProt P32300)            100
2  O=C1[C@@H](Cc2ccccc2)C[C@@]2(O)[C@H]3Cc4ccc(O)c5c4[C@@]2(CCN3CC2CC2)[C@H]1O5  Delta-type opioid receptor (Mus musculus) (UniProt P32300)            1.5
3  O=C1[C@@H]2Oc3c(O)ccc4c3[C@@]23CCN(CC2CC2)[C@H](C4)[C@]3(O)CC12Cc1ccccc1C2  Delta-type opioid receptor (Mus musculus) (UniProt P32300)           0.78
4  Oc1ccc2c3c1O[C@H]1[C@@H](Nc4ccccc4)CC[C@@]4(O)[C@@H](C2)N(CC2CC2)CC[C@]314  Delta-type opioid receptor (Mus musculus) (UniProt P32300)            8.8

Next compound, please.
Item O=C1/C(=C\c2ccccc2)C[C@@]2(O)[C@H]3Cc4ccc(O)c5c4[C@@]2(CCN3CC2CC2)[C@H]1O5 has what recorded Ke?
24
